Tested on: MDA-MB-435
Test: NCI 60-cell line growth inhibition assay
Assay type: cell-based
Conditions: Homo sapiens; MDA-MB-435 (Breast)
// values below are reported GI50
Only the number, expressed in nM, is required.

{"Molecule": "Cn1cnc2c(NCc3ccccc3)nc(NCCO)nc21 [Olomoucine, reference compound]", "Test system": "MDA-MB-435", "Metric name": "GI50", "Observed measurement": 63000}

*Q* Entry under review: CC[C@H](CO)Nc1nc(NCc2ccc(-c3ccc(OC)cc3)cc2)c2ncn(C(C)C)c2n1 [Compound 43] . Reported GI50?
*A* 2100

====

// values below are reported GI50
Tested on: K-562
Assay: NCI 60-cell line growth inhibition assay
Format: cell-based
Settings: Homo sapiens, K562; Leukemia, K-562
Only the number, expressed in nM, is required.

{"Compound": "C=Cc1ccc(-c2ccc(CNc3nc(N[C@H](CC)CO)nc4c3ncn4C(C)C)cc2)cc1 [Compound 33]", "Measurement unit": "nM", "Observed measurement": 3100}
{"Compound": "CC[C@H](CO)Nc1nc(NCc2ccc(-c3cccc(C(F)(F)F)c3)cc2)c2ncn(C(C)C)c2n1 [Compound 38]", "Measurement unit": "nM", "Observed measurement": 250}
{"Compound": "CC[C@H](CO)Nc1nc(NCc2ccc(-c3ccccc3)cc2)c2ncn(C(C)C)c2n1 [Compound 73]", "Measurement unit": "nM", "Observed measurement": 160}

We next turn to a different compound, shown below.
*Q* Entry under review: CC[C@H](CO)Nc1nc(NCc2ccc(-c3ccccn3)cc2)c2ncn(C(C)C)c2n1 [Compound 17] . Reported GI50?
*A* 160
